Target: human ether-à-go-go-related gene (hERG) potassium channel (human)
Assay: primary screen, population patch clamp on CHO cells stably expressing hERG; higher = less effect of the substance
The campaign covered roughly 310,000 compounds. About 14,000 (4.5%) showed an effect of 50% or more. The effect is printed as a negative number. Shown is part of a subset that was picked to be rich in strong results.
Below, each entry is listed alongside its reported hERG current change (%, negative = inhibition) at 10uM.
Numbers only; they are read as %.

Past entries and their recorded results:
COMPOUND	REPORTED RESULT
CCN(CC)c1ccc(/C=N/NC(=O)Cc2cccs2)cc1	-16.6
CCN(CC)CCNc1nc2c(c(=O)[nH]c(=O)n2C)n1CC(O)COc1ccc(Cl)cc1Cl (stereo not shown)	-70.2
CCCn1c(N)c(Sc2ccc(C)cc2)c(=O)n(CCC)c1=O	-14.3
N=c1c(C(=O)NC2CCCCC2)cc2c(=O)n3ccccc3nc2n1Cc1ccc(F)cc1	-77
N=c1c(C(=O)NC2CCCC2)cc2c(=O)n3ccccc3nc2n1Cc1ccccc1	-78.6
COc1ccc(-c2csc(NC(C)c3nc4cc(C(=O)NCCCO)ccc4n3Cc3ccc(C)cc3)n2)cc1 (stereo not shown)	9.34

For record CC1CCCCC1NC(=O)c1cc2c(=O)n3ccccc3nc2n1C (stereo not shown) the listed hERG current change (%, negative = inhibition) at 10uM is 4.32

Just so you know, measured hERG current change (%, negative = inhibition) at 10uM for Cc1ccc2sc(N3CCN(C(=O)C4=COCCO4)CC3)nc2c1C came out at -15.6

Notebook: COc1ccc(-c2[nH]c3ccccc3c2SCCNC(=O)c2cc3ccccc3oc2=O)cc1 , hERG current change (%, negative = inhibition) at 10uM read as -0.175

The compound listed as Cc1cc(C)n(-c2nc3c(c(=O)[nH]c(=O)n3C)n2CC(O)COc2ccc(Cl)cc2Cl)n1 (stereo not shown) has a reported hERG current change (%, negative = inhibition) at 10uM of -3.56

Notebook: Cc1ccc(C(=O)C2(C)C3c4cc(Br)ccc4OC(=O)C32C(=O)c2ccco2)cc1 (stereo not shown) , hERG current change (%, negative = inhibition) at 10uM read as 15.8

// O=C(NC1CCCCCC1)c1cc2c(=O)n3ccccc3nc2s1 : hERG current change (%, negative = inhibition) at 10uM value = 0.251

---

Molecular target: human ether-à-go-go-related gene (hERG) potassium channel (human, UniProt Q12809);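 note: peak tail current of the secondary pulse compared with the same well before compound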
Sequence (Q12809 whole entry, looked up): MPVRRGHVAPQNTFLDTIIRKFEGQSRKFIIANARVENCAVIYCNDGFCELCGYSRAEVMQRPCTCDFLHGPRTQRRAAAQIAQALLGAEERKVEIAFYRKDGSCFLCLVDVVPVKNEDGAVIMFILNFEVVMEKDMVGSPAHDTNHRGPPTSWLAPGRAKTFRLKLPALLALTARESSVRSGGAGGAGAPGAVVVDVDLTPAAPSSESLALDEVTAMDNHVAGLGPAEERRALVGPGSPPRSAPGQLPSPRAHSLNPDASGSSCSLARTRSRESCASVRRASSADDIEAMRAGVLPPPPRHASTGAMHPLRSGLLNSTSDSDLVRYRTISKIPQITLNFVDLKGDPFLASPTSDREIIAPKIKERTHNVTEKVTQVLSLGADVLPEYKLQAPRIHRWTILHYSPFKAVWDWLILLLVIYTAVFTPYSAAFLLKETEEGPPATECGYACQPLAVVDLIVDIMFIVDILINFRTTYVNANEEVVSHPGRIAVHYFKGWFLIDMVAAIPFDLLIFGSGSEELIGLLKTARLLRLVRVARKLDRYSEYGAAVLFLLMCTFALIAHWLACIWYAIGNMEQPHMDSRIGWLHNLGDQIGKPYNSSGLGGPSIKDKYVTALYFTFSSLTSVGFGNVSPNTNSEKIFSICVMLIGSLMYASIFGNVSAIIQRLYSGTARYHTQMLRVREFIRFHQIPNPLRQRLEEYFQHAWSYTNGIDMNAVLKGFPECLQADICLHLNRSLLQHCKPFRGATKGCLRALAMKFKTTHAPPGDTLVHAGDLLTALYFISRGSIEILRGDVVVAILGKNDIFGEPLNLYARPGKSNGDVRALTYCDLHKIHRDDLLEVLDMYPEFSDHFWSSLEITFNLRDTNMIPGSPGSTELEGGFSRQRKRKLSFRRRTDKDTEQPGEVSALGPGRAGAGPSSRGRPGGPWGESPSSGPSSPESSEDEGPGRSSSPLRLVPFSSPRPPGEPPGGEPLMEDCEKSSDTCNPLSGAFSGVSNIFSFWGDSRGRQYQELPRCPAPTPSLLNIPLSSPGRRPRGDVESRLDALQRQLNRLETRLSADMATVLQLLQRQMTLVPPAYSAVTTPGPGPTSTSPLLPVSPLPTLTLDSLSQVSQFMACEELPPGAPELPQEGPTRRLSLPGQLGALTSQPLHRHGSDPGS
Test: primary screen, population patch clamp on CHO cells stably expressing hERG; higher = less effect of the substance
The campaign covered roughly 310,000 compounds. About 14,000 (4.5%) showed an effect of 50% or more. Effects have a minus sign here. The list comes from a sample in which strong results are over-represented; it also holds close analogues and randomly drawn compounds.
Known hERG current change (%, negative = inhibition) at 10uM of a selection of molecules
Express your answer in %, writing the number without its unit.

Check out these entries, answers already filled in.
MOLECULE	REPORTED RESULT
CCN(CC)S(=O)(=O)N1CCC(C(=O)NC2CCCc3ccccc32)CC1 (stereo not shown)	-8
O=C(CSc1nnc(-c2ccncc2)o1)Nc1nncs1	15.5
N#Cc1c(SCC(=O)Nc2nc3ccc(Br)cc3s2)sc2c(O)cc(=O)[nH]c12	9.27
O=C(O)c1ccccc1-n1c2ccccc2c2ccccc21	19
CCOc1cc(/C=C/C(=O)N(CC)CC(=O)NCc2cccs2)cc(Cl)c1OC	-27.7

# hERG current change (%, negative = inhibition) at 10uM measured on human ether-à-go-go-related gene (hERG) potassium channel (human, UniProt Q12809) for item CCOc1ccc(/C=C/C(=O)N(CC)CC(=O)NCc2cccs2)cc1OC = -28.3

The reported human ether-à-go-go-related gene (hERG) potassium channel (human, UniProt Q12809) hERG current change (%, negative = inhibition) at 10uM of CCN(CC(=O)NCc1cccs1)C(=O)/C=C/c1cccc(Br)c1 is -66.8

hERG current change (%, negative = inhibition) at 10uM value, target or system human ether-à-go-go-related gene (hERG) potassium channel (human, UniProt Q12809), for CCOc1c(Cl)cc(/C=C/C(=O)N(CC)CC(=O)NCc2cccs2)cc1OC : -55.4

I looked up CCN(CC(=O)NCc1cccs1)C(=O)/C=C/c1ccc(Cl)c(Cl)c1 and its hERG current change (%, negative = inhibition) at 10uM for human ether-à-go-go-related gene (hERG) potassium channel (human, UniProt Q12809) was -41.1

Short answer on human ether-à-go-go-related gene (hERG) potassium channel (human, UniProt Q12809) for CC(Nc1ccccc1)c1cccnc1 (stereo not shown) , hERG current change (%, negative = inhibition) at 10uM: -49.1

---

Entries and their hERG current change (%, negative = inhibition) at 10uM
Target: human ether-à-go-go-related gene (hERG) potassium channel (human, UniProt Q12809);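 note: peak tail current of the secondary pulse compared with the same well before compound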
Assay: primary screen, population patch clamp on CHO cells stably expressing hERG; higher = less effect of the substance
Screen size: about 310,000 compounds; about 14,000 (4.5%) showed an effect of 50% or more. Effects have a minus sign here. The list comes from a sample in which strong results are over-represented; it also holds close analogues and randomly drawn compounds.
Respond with the bare value in %.

Observe how each entry below is paired with its result.
MOLECULE	REPORTED RESULT
Cl.O=C(OCCN1CCOCC1)c1cccs1	6.58
COc1ccc(CN(C)C(=S)Nc2ccc(Cl)cc2)cc1	-20.7

Kindly note the recorded hERG current change (%, negative = inhibition) at 10uM for CCn1cc(CN2CCC(C(=O)Nc3cccc(-c4cccc(OC)c4)c3)CC2)c(C)n1 , which is -46.3

The measured hERG current change (%, negative = inhibition) at 10uM associated with CC(=O)c1c(N2CCN(c3cccc(Cl)c3)CC2)nc(=S)n(-c2ccccc2)c1C reads -68.8

Reported hERG current change (%, negative = inhibition) at 10uM for O=C(NCCO)Nc1ccc(Cl)cc1 was 27.7

---

Molecular target: human ether-à-go-go-related gene (hERG) potassium channel (human);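 note: peak tail current of the secondary pulse compared with the same well before compound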
Assay: primary screen, population patch clamp on CHO cells stably expressing hERG; higher = less effect of the substance
About 14,000 (4.5%) of roughly 310,000 compounds showed an effect of 50% or more. The effect is printed as a negative number. Many of the other results were omitted from the sample, so strong results are more common in it than they were.
Rule: hERG current change (%, negative = inhibition) at 10uM of -20% or more gives true; anything lower gives false.

MOLECULE	CLASSIFICATION
COc1ccccc1C(=O)Nc1ccc(S(=O)(=O)N2CCc3ccccc32)cc1	false

Task item: Could you please find out whether O=C(c1cccc(S(=O)(=O)N2CCc3ccccc32)c1)N1CCc2ccccc2C1 has hERG current change (%, negative = inhibition) at 10uM that meets -20% or exceeds it?
Reply: true

Task item: Confirm if hERG current change (%, negative = inhibition) at 10uM reported for the molecule COc1ccc(S(=O)(=O)N2CCc3ccccc32)cc1C(=O)N1CCOCC1 is -20% or above.
Reply: true

Task item: Answer whether hERG current change (%, negative = inhibition) at 10uM of CCOC(=O)c1cc2c(=O)n3ccccc3nc2n(Cc2ccco2)c1=NC(=O)c1cccc(OC)c1 is greater than or equal to -20%.
Reply: false

Task item: Hello, I need to know if O=C(OCC(=O)N(Cc1ccccc1)Cc1ccccc1)c1ccccc1NCCO has measured hERG current change (%, negative = inhibition) at 10uM not below -20%. Thanks!
Reply: true

Task item: Given the entry CCOC(=O)C1CCN(C(=O)c2cccc(S(=O)(=O)N3CCc4ccccc43)c2)CC1 , answer whether its hERG current change (%, negative = inhibition) at 10uM meets or surpasses -20%.
Reply: false

Task item: Say whether CCN1CN(CCc2ccccc2)CNC1=S shows hERG current change (%, negative = inhibition) at 10uM of -20% or more.
Reply: true

Task item: Could you please find out whether O=C(OCC(=O)N(Cc1ccccc1)Cc1ccccc1)c1ccccc1O has hERG current change (%, negative = inhibition) at 10uM that meets -20% or exceeds it?
Reply: true

Task item: hERG current change (%, negative = inhibition) at 10uM >= -20% for N#CCc1ccccc1C(=O)OCC(=O)N(Cc1ccccc1)Cc1ccccc1 ?
Reply: false

---

Target: human ether-à-go-go-related gene (hERG) potassium channel (human);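 note: peak tail current of the secondary pulse compared with the same well before compound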
Assay: primary screen, population patch clamp on CHO cells stably expressing hERG; higher = less effect of the substance
The campaign covered roughly 310,000 compounds. About 14,000 (4.5%) showed an effect of 50% or more. The effect is printed as a negative number. For the sample, strong results were picked, then their nearest neighbours and some compounds at random.
Output true for hERG current change (%, negative = inhibition) at 10uM not less than -10%; output false otherwise.

Please review the following examples before continuing.
COMPOUND	CLASSIFICATION
Cc1cc(C)c(C#N)c(Nc2ccccc2C)n1	true
COc1ccc(F)cc1C(=O)C1CCCN(C(=O)CCc2ccccn2)C1 (stereo not drawn)	true
CCN1C(=O)[C@H]2[C@@H](c3ccc(-c4ccc(OC)cc4)cc3)N[C@@](Cc3ccccc3)(C(=O)OC)[C@H]2C1=O.O=C(O)C(F)(F)F	true

Task item: Please indicate if the recorded hERG current change (%, negative = inhibition) at 10uM for c1ccc2c(CCNc3ncnc4nc[nH]c34)cccc2c1 meets or exceeds -10%.
Reply: true

Task item: Textbook exercise: given the entry COc1ccccc1C(=O)C1CCCN(Cc2cccc(OCCO)c2)C1 (stereo not drawn) , state whether its hERG current change (%, negative = inhibition) at 10uM is greater than or equal to -10%.
Reply: false
